# assay.system: α1 receptor
# protocol.description: Displacement of 3H WB 4101, plasmic membranes of rat brains
# run.parameters: read-out: EC50 of DISPLACEMENT of 3H WB 4101; rat brain membranes; 3H WB4101 0.2×10^-9 M
# Description: The binding tests are effected on suspensions of plasmic membranes coming from various organs. The suspensions of membranes are placed in incubation with the tritiated ligand and various concentrations of products to be tested. After incubation, each test is filtered on GFB(Whatman) filter, the filters are dried and introduced into counting flasks. The measurement of the radioactivity is assessed by scintillation in a liquid medium. […]
measurement.name: EC50 (nM)
Give just the number in nM; leave the unit off.

So for CC(Cc1c[nH]c2ccccc12)NCC(O)COc1cccc2[nH]ccc12 (centres unmarked) , the logged EC50 turned out to be 215

So for Cc1ccccc1OCC(O)CNC(CO)Cc1c[nH]c2ccccc12 (racemic) , the logged EC50 turned out to be 1.1

So for NC(=O)Cc1ccc(OCC(O)CNCCc2c[nH]c3ccccc23)cc1 (centres unmarked) , the logged EC50 turned out to be 2.7

So for CC(Cc1c[nH]c2ccccc12)NCC(O)COc1ccccc1C#N (centres unmarked) , the logged EC50 turned out to be 110

So for Cc1ccccc1OCC(O)CNC(C)Cc1c[nH]c2ccc(F)cc12 (centres unmarked) , the logged EC50 turned out to be 600

So for Cc1ccccc1OCC(O)CNC(C)(C)Cc1c[nH]c2ccccc12 (centres unmarked) , the logged EC50 turned out to be 320

So for CC(Cc1c[nH]c2ccc(Cl)cc12)NCC(O)COc1ccc(CC(N)=O)cc1 (centres unmarked) , the logged EC50 turned out to be 2.3

So for CC(Cc1c[nH]c2ccccc12)NCC(O)COc1ccccc1[N+](=O)[O-] (centres unmarked) , the logged EC50 turned out to be 320

So for Cc1ccccc1OC[C@H](O)CN[C@H](CO)Cc1c[nH]c2ccccc12 , the logged EC50 turned out to be 1.9

So for Cc1ccccc1OCC(O)CNC(C)Cc1c[nH]c2ccccc12 (centres unmarked) , the logged EC50 turned out to be 500

So for CC(Cc1c[nH]c2ccccc12)NCC(O)COc1ccccc1Cl (centres unmarked) , the logged EC50 turned out to be 310
